Collected GI50 values appear next to each entry.
- ASSAYED_TARGET: Ba/F3 EGFR-Del19/T790M (Homo sapiens, UniProt P00533, T790M, cells depend on it, form not given)
- Sequence (P00533 with tags, fused parts or gaps DEL746-750/T790M, form open): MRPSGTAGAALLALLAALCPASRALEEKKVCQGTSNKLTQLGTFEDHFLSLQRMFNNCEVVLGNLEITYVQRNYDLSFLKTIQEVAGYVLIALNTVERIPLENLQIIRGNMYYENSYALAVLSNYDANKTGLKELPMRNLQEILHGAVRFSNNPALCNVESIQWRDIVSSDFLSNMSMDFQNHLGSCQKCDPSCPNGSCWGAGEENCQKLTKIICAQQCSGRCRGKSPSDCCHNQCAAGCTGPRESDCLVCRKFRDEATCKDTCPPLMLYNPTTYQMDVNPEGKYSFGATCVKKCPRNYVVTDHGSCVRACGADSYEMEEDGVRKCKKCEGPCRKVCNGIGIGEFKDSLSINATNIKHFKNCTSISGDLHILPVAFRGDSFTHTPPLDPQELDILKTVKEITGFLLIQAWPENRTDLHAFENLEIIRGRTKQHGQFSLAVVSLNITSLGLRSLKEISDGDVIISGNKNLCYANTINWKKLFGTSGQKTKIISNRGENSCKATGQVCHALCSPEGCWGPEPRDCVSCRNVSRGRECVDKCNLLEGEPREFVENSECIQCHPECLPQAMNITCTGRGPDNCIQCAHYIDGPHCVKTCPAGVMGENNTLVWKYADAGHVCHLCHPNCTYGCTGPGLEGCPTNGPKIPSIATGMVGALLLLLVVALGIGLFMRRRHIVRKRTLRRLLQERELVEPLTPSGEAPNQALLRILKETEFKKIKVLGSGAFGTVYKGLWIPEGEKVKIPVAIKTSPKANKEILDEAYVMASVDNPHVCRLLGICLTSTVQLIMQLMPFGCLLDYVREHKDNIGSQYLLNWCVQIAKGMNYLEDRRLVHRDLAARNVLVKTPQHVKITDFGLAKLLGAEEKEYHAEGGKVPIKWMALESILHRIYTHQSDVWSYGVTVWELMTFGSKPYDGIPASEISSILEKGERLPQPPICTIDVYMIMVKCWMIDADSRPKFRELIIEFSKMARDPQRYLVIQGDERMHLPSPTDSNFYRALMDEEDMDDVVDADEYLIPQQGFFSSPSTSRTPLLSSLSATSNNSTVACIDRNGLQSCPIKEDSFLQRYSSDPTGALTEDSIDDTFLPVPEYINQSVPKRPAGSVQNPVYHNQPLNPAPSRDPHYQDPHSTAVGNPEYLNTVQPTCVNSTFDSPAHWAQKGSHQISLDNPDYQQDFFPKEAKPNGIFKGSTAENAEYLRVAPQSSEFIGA
- TEST_DESCRIPTION: Ba/F3 viability assay (CellTiter-Glo), BAF3 DT
- Type: cell-based
- TEST_CONTEXT: Ba/F3 EGFR-Del19/T790M cell viability

A selection of reference data follows.
[
  {
    "COMPOUND": "Cc1ccc(-c2ccc3c(c2)N2C[C@H](C)CCCc4c(cnn4C)-c4cc(cc(C)n4)C(=O)/N=C/2N3)cn1 [Compound (10)]",
    "GI50": "< 0.05 µM"
  },
  {
    "COMPOUND": "Cc1cc2cc(n1)-c1cnn(C)c1CCCO[C@@H](C)CN1/C(=N/C2=O)Nc2ccc(CN3CCN(C)CC3)cc21 [Compound (55)]",
    "GI50": "0.1 to 1 µM"
  },
  {
    "COMPOUND": "COc1ccncc1-c1ccc2c(c1)N1C[C@H](C)CCCc3c(cnn3C)-c3cc(cc(C)n3)C(=O)/N=C/1N2 [(9)]",
    "GI50": "< 0.05 µM"
  },
  {
    "COMPOUND": "Cc1cc2cc(n1)-c1cnn(C)c1CCC[C@@H](C)CN1/C(=N/C2=O)Nc2c(C)cc(N3CCN(C)CC3)cc21 [(2)]",
    "GI50": "< 0.05 µM"
  },
  {
    "COMPOUND": "Cc1cc2cc(n1)-c1cnn(C)c1-c1cccc(c1)C(C)CN1/C(=N/C2=O)Nc2ccc(C(=O)N3CCN(C)CC3)cc21 (stereo not shown) [(57)]",
    "GI50": "≥ 1 µM"
  }
]

Notebook: Cc1cc2cc(n1)-c1cnn(C)c1CCC[C@@H](C)CN1/C(=N/C2=O)Nc2ccc(N3CCN(C(C)C)CC3)cc21 [(28)] , GI50 read as < 0.05 µM

Notebook: Cc1cc2cc(n1)-c1cnn(C)c1CCC[C@@H](C)CN1/C(=N/C2=O)Nc2ccc(CN3CCN(C)CC3)cc21 [(35)] , GI50 read as < 0.05 µM

====

Collected GI50 values appear next to each entry.
- ASSAYED_TARGET: Ba/F3 EGFR-Del19/C797S (Homo sapiens, UniProt P00533, C797S, cells depend on it, form not given)
- Sequence (P00533 with tags, fused parts or gaps DEL746-750/C797S, form open): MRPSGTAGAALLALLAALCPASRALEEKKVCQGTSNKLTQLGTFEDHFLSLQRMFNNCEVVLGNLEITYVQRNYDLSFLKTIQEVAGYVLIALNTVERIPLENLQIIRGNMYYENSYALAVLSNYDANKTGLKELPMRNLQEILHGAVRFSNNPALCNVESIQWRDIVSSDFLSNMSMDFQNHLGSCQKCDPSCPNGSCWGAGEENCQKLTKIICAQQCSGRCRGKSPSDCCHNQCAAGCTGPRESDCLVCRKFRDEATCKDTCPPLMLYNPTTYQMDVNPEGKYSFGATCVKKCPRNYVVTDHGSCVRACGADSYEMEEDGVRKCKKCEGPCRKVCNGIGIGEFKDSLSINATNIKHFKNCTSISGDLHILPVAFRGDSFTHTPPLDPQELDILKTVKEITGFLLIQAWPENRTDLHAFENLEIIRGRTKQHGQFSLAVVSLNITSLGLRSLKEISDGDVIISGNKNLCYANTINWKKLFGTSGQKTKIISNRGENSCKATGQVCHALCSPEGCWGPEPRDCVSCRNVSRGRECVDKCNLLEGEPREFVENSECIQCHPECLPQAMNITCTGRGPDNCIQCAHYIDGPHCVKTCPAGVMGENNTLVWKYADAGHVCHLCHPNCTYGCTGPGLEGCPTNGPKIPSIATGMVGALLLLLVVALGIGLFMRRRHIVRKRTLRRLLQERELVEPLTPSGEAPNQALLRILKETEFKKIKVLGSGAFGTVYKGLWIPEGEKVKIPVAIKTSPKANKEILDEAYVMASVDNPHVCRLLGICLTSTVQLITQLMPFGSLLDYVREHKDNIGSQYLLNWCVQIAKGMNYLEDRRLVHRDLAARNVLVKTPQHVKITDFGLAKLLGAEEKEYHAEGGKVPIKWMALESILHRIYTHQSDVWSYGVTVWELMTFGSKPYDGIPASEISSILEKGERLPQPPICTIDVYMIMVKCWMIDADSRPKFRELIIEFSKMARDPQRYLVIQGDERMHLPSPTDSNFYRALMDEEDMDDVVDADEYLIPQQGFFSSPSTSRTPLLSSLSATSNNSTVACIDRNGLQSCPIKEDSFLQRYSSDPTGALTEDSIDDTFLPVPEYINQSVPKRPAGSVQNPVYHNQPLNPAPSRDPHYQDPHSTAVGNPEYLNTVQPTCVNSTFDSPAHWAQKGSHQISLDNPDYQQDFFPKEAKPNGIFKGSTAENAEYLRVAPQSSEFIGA
- TEST_DESCRIPTION: Ba/F3 viability assay (CellTiter-Glo), BAF3 DC
- Format: cell-based
- TEST_CONTEXT: Ba/F3 EGFR-Del19/C797S cell viability

A selection of reference data follows.
[
  {
    "MOL": "Cc1cc2cc(n1)-c1cnn(C)c1CCC[C@@H](C)CN1/C(=N/C2=O)Nc2ccc(CN3CCN(CCF)CC3)cc21",
    "GI50": "< 0.05 µM"
  },
  {
    "MOL": "Cc1cc2cc(n1)-c1cnn(C)c1CCCCCN1/C(=N/C2=O)Nc2ccc(CN3CCN(C)CC3)cc21",
    "GI50": "< 0.05 µM"
  },
  {
    "MOL": "Cc1cc2cc(n1)-c1cnn(C)c1CCC[C@@H](C)CN1/C(=N/C2=O)Nc2ccc(N3CCC(N4CCOCC4)CC3)cc21",
    "GI50": "< 0.05 µM"
  },
  {
    "MOL": "Cc1cc2cc(n1)-c1cnn(C)c1CCC[C@@H](C)CN1/C(=N/C2=O)Nc2ccc(N3C[C@@H](C)N(C)[C@@H](C)C3)cc21",
    "GI50": "< 0.05 µM"
  }
]

Notebook: Cc1cc2cc(n1)-c1cnn(C)c1CCCCCCN1/C(=N/C2=O)Nc2ccc(N(C)CCN(C)C)cc21 , GI50 read as 0.1 to 1 µM
